Where do these numbers come from? They come from the kinase profiling compilation of Christmann-Franck et al. (2016).

Target: UniProt P24723
Sequence (P24723 whole entry, looked up): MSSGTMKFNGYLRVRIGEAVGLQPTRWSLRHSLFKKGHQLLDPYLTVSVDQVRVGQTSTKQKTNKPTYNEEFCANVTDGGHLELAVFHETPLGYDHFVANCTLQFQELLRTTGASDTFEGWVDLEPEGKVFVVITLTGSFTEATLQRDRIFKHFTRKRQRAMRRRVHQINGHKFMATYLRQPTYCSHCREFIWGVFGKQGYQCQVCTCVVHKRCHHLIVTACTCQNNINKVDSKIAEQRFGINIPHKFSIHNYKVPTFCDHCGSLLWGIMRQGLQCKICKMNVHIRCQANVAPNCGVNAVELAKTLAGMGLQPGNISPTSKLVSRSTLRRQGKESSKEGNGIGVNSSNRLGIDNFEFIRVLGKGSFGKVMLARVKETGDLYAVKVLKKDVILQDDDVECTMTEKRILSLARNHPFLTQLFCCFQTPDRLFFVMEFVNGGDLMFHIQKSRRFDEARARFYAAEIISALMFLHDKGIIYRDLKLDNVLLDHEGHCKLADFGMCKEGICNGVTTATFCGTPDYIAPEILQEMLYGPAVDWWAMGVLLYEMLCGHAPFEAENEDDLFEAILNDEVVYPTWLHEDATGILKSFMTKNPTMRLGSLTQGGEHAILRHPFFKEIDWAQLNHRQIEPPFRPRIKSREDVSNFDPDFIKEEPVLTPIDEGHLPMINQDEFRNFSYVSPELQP
Experiment: split-luciferase competition binding
Conditions: compound 10.0 µM
Values of inhibition greater than or equal to 1% map to 1.0; values below map to 0.0.

Input smiles | Label class
NC(=O)c1ccc(-c2nc(-c3ccccn3)c(-c3ccc4c(c3)OCO4)[nH]2)cc1 | 0.0
O=c1cc(N2CCOCC2)oc2c(-c3ccccc3)cccc12 | 0.0
Cc1cc2nc3c(=O)[nH]c(=O)nc-3n(C)c2cc1C=O | 1.0
O=C1NC(=O)C(c2ccccc2[N+](=O)[O-])=C1Nc1ccc(O)c(Cl)c1 | 1.0
COc1cc2nccc(Oc3ccc(NC(=O)Nc4ccc(F)cc4F)c(F)c3)c2cc1OC | 0.0
O=c1cc(N2CCOCC2)oc2c1ccc1ccccc12 | 0.0
COc1nccc(-c2c(-c3ccc(F)cc3)ncn2[C@H]2CC[C@H](O)CC2)n1 | 0.0
CC(C)[C@H](CO)Nc1nc(Nc2ccc(C(=O)O)c(Cl)c2)c2ncn(C(C)C)c2n1 | 1.0
COc1ccc(Cl)cc1NC(=O)Nc1cc(C)nc2ccccc12 | 0.0
CN(C)CCCn1cc(C2=C(c3c[nH]c4ccccc34)C(=O)NC2=O)c2ccccc21 | 1.0
COc1cc2c(Nc3ccc(NC(=O)c4ccccc4)cc3)ncnc2cc1OCCCN1CCOCC1 | 0.0
CC(C)(C)n1nc(-c2ccc(Cl)cc2)c2c(N)ncnc21 | 1.0
Cc1ccccc1C(=O)c1ccc(Nc2ccc(Br)cc2N)cc1Cl | 0.0
NC(=O)c1ccc(-c2nc(-c3ccccn3)c(-c3ccc4c(c3)OCCO4)[nH]2)cc1 | 0.0
O=S(=O)(c1cccc2cnccc12)N1CCCNCC1 | 1.0
CC(=O)c1c(O)c(C)c(O)c(Cc2c(O)c3c(c(C(=O)/C=C/c4ccccc4)c2O)OC(C)(C)C=C3)c1O | 0.0
Cc1cc(I)ccc1Nc1c(C(=O)NOCC2CC2)cc(F)c(F)c1F | 0.0
CCN(CC)CCNC(=O)c1c(C)[nH]c(/C=C2\C(=O)Nc3ccc(F)cc32)c1C | 1.0
Cc1ccc(NC(=O)c2cccc(N(C)C)c2)cc1NC(=O)c1ccc(O)cc1 | 0.0

---

Biological target: RPS6KA3 KD1 (human)
Test: split-luciferase competition binding
Settings: compound 10.0 µM
Endpoint: inhibition (%)

Input smiles | Endpoint | Observed measurement
Cn1cnc2c(NCc3ccccc3)nc(NCCO)nc21 | inhibition | 0
CN(C)CCCn1cc(C2=C(c3c[nH]c4ccccc34)C(=O)NC2=O)c2ccccc21 | inhibition | 33
O=C(c1ccc(Nc2nccc(-c3cc4ccccc4s3)n2)cc1)N1CCC(N2CCCC2)CC1 | inhibition | 2
CS(=O)(=O)CCNCc1nc(-c2ccc3ncnc(Nc4ccc(OCc5cccc(F)c5)c(Cl)c4)c3c2)cs1 | inhibition | 0
O=c1cc(N2CCOCC2)oc2c1ccc1ccccc12 | inhibition | 0
CC(C)[C@H](CO)Nc1nc(Nc2cccc(Cl)c2)c2ncn(C(C)C)c2n1 | inhibition | 41
NC(=O)Nc1sc(-c2ccc(F)cc2)cc1C(N)=O | inhibition | 7
CC(=O)c1c(O)c(C)c(O)c(Cc2c(O)c3c(c(C(=O)/C=C/c4ccccc4)c2O)OC(C)(C)C=C3)c1O | inhibition | 4
O=C1c2ccccc2-c2n[nH]c3cccc1c23 | inhibition | 0
Fc1ccc(Cl)cc1-c1nc(Nc2ccncc2)c2nccnc2n1 | inhibition | 12
Cc1[nH]c(/C=C2\C(=O)Nc3ccc(S(=O)(=O)Cc4c(Cl)cccc4Cl)cc32)c(C)c1C(=O)N1CCC[C@@H]1CN1CCCC1 | inhibition | 13
COc1cc2ncnc(Nc3ccc(F)c(Cl)c3)c2cc1OCCCN1CCOCC1 | inhibition | 0
COc1cc2ncn(-c3cc(OCc4ccccc4C(F)(F)F)c(C(N)=O)s3)c2cc1OC | inhibition | 27
CCN(CC)CCCCN1c2ccccc2Oc2ccc(Cl)cc21 | inhibition | 0
Cc1ccc(NC(=O)c2cccc(N(C)C)c2)cc1NC(=O)c1ccc(O)cc1 | inhibition | 0
c1ccc(-c2n[nH]cc2-c2ccnc3ccccc23)nc1 | inhibition | 0
CC(C)[C@H](CO)Nc1nc(Nc2ccc(C(=O)O)c(Cl)c2)c2ncn(C(C)C)c2n1 | inhibition | 66
NC(=O)c1ccc(-c2nc(-c3ccccn3)c(-c3ccc4c(c3)OCO4)[nH]2)cc1 | inhibition | 0
CC(C)N(CCC(=O)c1ccc2ccccc2c1)Cc1ccccc1 | inhibition | 0
Brc1c(Br)c(Br)c2[nH]nnc2c1Br | inhibition | 3
O=C1NC(=O)C(c2ccccc2[N+](=O)[O-])=C1Nc1ccc(O)c(Cl)c1 | inhibition | 0

---

inhibition values by entry
Biological target: STK32B (human) (UniProt Q9NY57)
Sequence (Q9NY57 whole entry, looked up): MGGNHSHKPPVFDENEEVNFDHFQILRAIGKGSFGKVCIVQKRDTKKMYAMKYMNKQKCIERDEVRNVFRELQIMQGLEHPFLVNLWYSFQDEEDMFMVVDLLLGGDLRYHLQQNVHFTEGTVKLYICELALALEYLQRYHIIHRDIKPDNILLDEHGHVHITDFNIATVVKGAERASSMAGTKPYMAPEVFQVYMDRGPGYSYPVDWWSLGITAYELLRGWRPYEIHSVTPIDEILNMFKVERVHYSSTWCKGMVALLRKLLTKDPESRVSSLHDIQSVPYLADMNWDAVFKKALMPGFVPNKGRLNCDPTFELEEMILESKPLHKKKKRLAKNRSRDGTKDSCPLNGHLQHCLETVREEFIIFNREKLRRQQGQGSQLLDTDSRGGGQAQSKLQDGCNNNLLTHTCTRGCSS
Experiment: split-luciferase competition binding
Settings: compound 10.0 µM

Molecule | Assayed system | inhibition [%]
C=CC(=O)c1ccc2ccccc2c1 | STK32B (human) (UniProt Q9NY57) | 0
N#CC(=C(\N)Sc1ccccc1N)/C(C#N)=C(/N)Sc1ccccc1N | STK32B (human) (UniProt Q9NY57) | 0
Cc1ccccc1C(=O)c1ccc(Nc2ccc(Br)cc2N)cc1Cl | STK32B (human) (UniProt Q9NY57) | 0
COc1cc(CC2C(=O)OC[C@@H]2Cc2ccc(OC)c(OC)c2)ccc1O (stereo not given in full) | STK32B (human) (UniProt Q9NY57) | 15
N#C/C(=C\c1ccc(O)c(O)c1)C(=O)NCc1ccccc1 | STK32B (human) (UniProt Q9NY57) | 0
COc1cc2ncnc(Nc3ccc(F)c(Cl)c3)c2cc1OCCCN1CCOCC1 | STK32B (human) (UniProt Q9NY57) | 0
O=C(NC(NC(=S)Nc1ccc(F)c([N+](=O)[O-])c1)C(Cl)(Cl)Cl)C(c1ccccc1)c1ccccc1 (stereo not given) | STK32B (human) (UniProt Q9NY57) | 8
O=C1NC(=O)C(c2ccccc2[N+](=O)[O-])=C1Nc1ccc(O)c(Cl)c1 | STK32B (human) (UniProt Q9NY57) | 0
Cn1cc(C2=C(c3ccc(Cl)cc3Cl)C(=O)NC2=O)c2ccccc21 | STK32B (human) (UniProt Q9NY57) | 0
N#C/C(=C(/N)Sc1ccc(N)cc1)c1ccccc1C(F)(F)F | STK32B (human) (UniProt Q9NY57) | 0
CCN(CC)CCCCN1c2ccccc2Oc2ccc(Cl)cc21 | STK32B (human) (UniProt Q9NY57) | 0
COc1nccc(-c2c(-c3ccc(F)cc3)ncn2[C@H]2CC[C@H](O)CC2)n1 | STK32B (human) (UniProt Q9NY57) | 40
CC(C)(C)n1nc(-c2ccc(Cl)cc2)c2c(N)ncnc21 | STK32B (human) (UniProt Q9NY57) | 43
CC[C@@H](CO)Nc1nc(NCc2ccccc2)c2ncn(C(C)C)c2n1 | STK32B (human) (UniProt Q9NY57) | 0
COc1cc2c(Nc3ccc(NC(=O)c4ccccc4)cc3)ncnc2cc1OCCCN1CCOCC1 | STK32B (human) (UniProt Q9NY57) | 1
CN(C)CCCn1cc(C2=C(c3c[nH]c4ccccc34)C(=O)NC2=O)c2ccccc21 | STK32B (human) (UniProt Q9NY57) | 29
COc1cc2ncn(-c3cc(OCc4ccccc4C(F)(F)F)c(C(N)=O)s3)c2cc1OC | STK32B (human) (UniProt Q9NY57) | 15
CN1CC[C@H](c2c(O)cc(O)c3c(=O)cc(-c4ccccc4Cl)oc23)[C@H](O)C1 | STK32B (human) (UniProt Q9NY57) | 11
COc1ccc(Cl)cc1NC(=O)Nc1cc(C)nc2ccccc12 | STK32B (human) (UniProt Q9NY57) | 0
O=C1NC(=O)c2c1c1c3ccccc3[nH]c1c1[nH]c3ccccc3c21 | STK32B (human) (UniProt Q9NY57) | 9
NC(=O)c1ccc(-c2nc(-c3ccccn3)c(-c3ccc4c(c3)OCO4)[nH]2)cc1 | STK32B (human) (UniProt Q9NY57) | 0
O=C1Nc2ccc(I)cc2/C1=C/c1cc(Br)c(O)c(Br)c1 | STK32B (human) (UniProt Q9NY57) | 0
CC(C)[C@H](CO)Nc1nc(Nc2ccc(C(=O)O)c(Cl)c2)c2ncn(C(C)C)c2n1 | STK32B (human) (UniProt Q9NY57) | 9
Fc1ccc(Cl)cc1-c1nc(Nc2ccncc2)c2nccnc2n1 | STK32B (human) (UniProt Q9NY57) | 15
O=S(=O)(c1cccc2c(Cl)cccc12)N1CCCNCC1 | STK32B (human) (UniProt Q9NY57) | 0
COc1cc2nccc(Oc3ccc(NC(=O)Nc4ccc(F)cc4F)c(F)c3)c2cc1OC | STK32B (human) (UniProt Q9NY57) | 0
Cc1cc(I)ccc1Nc1c(C(=O)NOCC2CC2)cc(F)c(F)c1F | STK32B (human) (UniProt Q9NY57) | 0
c1ccc(-c2n[nH]cc2-c2ccnc3ccccc23)nc1 | STK32B (human) (UniProt Q9NY57) | 8
Cc1cc(F)c(Nc2ncnc3cc(OCc4ccccc4)ccc23)cc1O | STK32B (human) (UniProt Q9NY57) | 16
O=S(=O)(c1cccc2cnccc12)N1CCCNCC1 | STK32B (human) (UniProt Q9NY57) | 0
CC(C)[C@H](CO)Nc1nc(Nc2cccc(Cl)c2)c2ncn(C(C)C)c2n1 | STK32B (human) (UniProt Q9NY57) | 4
O=S(=O)(c1cccc2c(O)nccc12)N1CCCNCC1 | STK32B (human) (UniProt Q9NY57) | 0
CO[C@@H]1[C@H](N(C)C(=O)c2ccccc2)C[C@H]2O[C@]1(C)n1c3ccccc3c3c4c(c5c6ccccc6n2c5c31)C(=O)NC4 | STK32B (human) (UniProt Q9NY57) | 56
COc1cc2ncnc(Nc3ccc(Cl)cc3F)c2cc1OC | STK32B (human) (UniProt Q9NY57) | 14
CS(=O)(=O)CCNCc1nc(-c2ccc3ncnc(Nc4ccc(OCc5cccc(F)c5)c(Cl)c4)c3c2)cs1 | STK32B (human) (UniProt Q9NY57) | 9
O=C(Nc1cc(C(F)(F)F)cc(C(F)(F)F)c1)c1cc(Cl)ccc1O | STK32B (human) (UniProt Q9NY57) | 11
Cc1[nH]c(/C=C2\C(=O)Nc3ccc(S(=O)(=O)Cc4c(Cl)cccc4Cl)cc32)c(C)c1C(=O)N1CCC[C@@H]1CN1CCCC1 | STK32B (human) (UniProt Q9NY57) | 23
O=c1cc(N2CCOCC2)oc2c(-c3ccccc3)cccc12 | STK32B (human) (UniProt Q9NY57) | 0
O=c1cc(N2CCOCC2)oc2c1ccc1ccccc12 | STK32B (human) (UniProt Q9NY57) | 0
CN1CCC(Nc2ncc3ncnc(Nc4ccc(F)c(Cl)c4)c3n2)CC1 | STK32B (human) (UniProt Q9NY57) | 0
CC(C)(C)n1nc(-c2cccc3ccccc23)c2c(N)ncnc21 | STK32B (human) (UniProt Q9NY57) | 66
O=C1c2ccccc2-c2n[nH]c3cccc1c23 | STK32B (human) (UniProt Q9NY57) | 0
NC(=O)Nc1sc(-c2ccc(F)cc2)cc1C(N)=O | STK32B (human) (UniProt Q9NY57) | 0
CC(C)[C@H](CO)Nc1nc(Nc2cc(N)cc(Cl)c2)c2ncn(C(C)C)c2n1 | STK32B (human) (UniProt Q9NY57) | 20
NC(=O)c1sc(-c2ccsc2)cc1N | STK32B (human) (UniProt Q9NY57) | 0
